pEC50 for assorted substances
EXPERIMENTAL_TARGET: CD137 (Homo sapiens)
Sequence (Q07011 24-255): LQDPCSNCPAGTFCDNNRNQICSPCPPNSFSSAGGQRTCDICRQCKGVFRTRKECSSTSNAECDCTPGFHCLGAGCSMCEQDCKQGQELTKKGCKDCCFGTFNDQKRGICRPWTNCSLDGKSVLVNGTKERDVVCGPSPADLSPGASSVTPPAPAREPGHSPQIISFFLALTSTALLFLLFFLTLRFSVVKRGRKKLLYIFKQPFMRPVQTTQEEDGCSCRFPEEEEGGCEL
TEST_SUMMARY: CD137 reporter assay (Promega, Jurkat cells) in co-culture with EphA2-expressing tumor cells (A549, PC3, HT29)
Assay type: cell-based
Design: host or cells: Jurkat reporter cells
REPORTED_CONDITIONS: EC50, CD137 reporter coculture assay with PC3 tumor cells
Starred links: 1 amine or outer side, 2 acyl side, 3 side chain; linkers in the order of their positions; H or OH if unused. Positions of bridges follow the written chain, without caps; N, C: chain ends. Non-standard residues stand in square brackets, D forms with d. Chains are numbered I, II in the order given. ξ: configuration not given here. X4 = O=C(CCOCCOCCOCCOCCOCCn1cc(CCC(=O)[*:2])nn1)NCCCN(CCCNC(=O)CCOCCOCCOCCOCCOCCn1cc(CCC(=O)[*:3])nn1)CC(=O)[*:1]; X1 = O=C(CCOCCOCCOCCN(CCOCCOCCOCCn1cc(CCC(=O)[*:2])nn1)CCOCCOCCOCCn1cc(CCC(=O)[*:3])nn1)[*:1]; X3 = O=C(CCc1cn(CCOCCOCCOCCN(CCOCCOCCOCCC(=O)[*:3])CCOCCOCCOCCn2cc(CCC(=O)[*:2])nn2)nn1)[*:1]; X2 = O=C(CCSCCC(=O)[*:1])N1CN(C(=O)CC[*:2])CN(C(=O)CC[*:3])C1; TATA = O=C(CC[*:1])N1CN(C(=O)CC[*:2])CN(C(=O)CC[*:3])C1; Dip = N[C@H](C(=O)O)C(c1ccccc1)c1ccccc1; ξDip = NC(C(=O)O)C(c1ccccc1)c1ccccc1; Hyp = O=C(O)[C@@H]1C[C@@H](O)CN1; hArg = N=C(N)NCCCC[C@H](N)C(=O)O; tBuAla = CC(C)(C)C[C@H](N)C(=O)O; Cba = N[C@@H](CC1CCC1)C(=O)O; NMeA = CN[C@@H](C)C(=O)O; Nle = CCCC[C@H](N)C(=O)O; Mpa = O=C(O)CCS
Lab note: report pEC50 as minus log10 of the concentration in molar units, number only.

SUBSTANCE	pEC50
I: A[hArg]DC[Hyp]LVNPLCL[Dip]P[dD]WTC-NH2 / II: Ac-C[tBuAla]PE[dK]PYCFADPY[Nle]CA-NH2 / III: Ac-C[tBuAla]PE[dK]PYCFADPY[Nle]CA-NH2 (linker I:4-I:11-I:18, II:1-II:8-II:15, III:1-III:8-III:15 via TATA; linker I:N-II:5-III:5 via X1) [BCY13047]	10.15
I: A[hArg]DC[Hyp][Cba]VNPLCLEP[dD]WTC-NH2 / II: Ac-C[tBuAla]PE[dK]PYCFADPY[Nle]CA-NH2 / III: Ac-C[tBuAla]PE[dK]PYCFADPY[Nle]CA-NH2 (linker I:4-I:11-I:18, II:1-II:8-II:15, III:1-III:8-III:15 via TATA; linker I:N-II:5-III:5 via X1) [BCY13051]	9.68
I: [NMeA][hArg]DC[Hyp]LVNPLCLHP[dD]W[hArg]C-NH2 / II: Ac-C[tBuAla]PE[dK]PYCFADPY[Nle]CA-NH2 / III: Ac-C[tBuAla]PE[dK]PYCFADPY[Nle]CA-NH2 (linker I:4-I:11-I:18, II:1-II:8-II:15, III:1-III:8-III:15 via TATA; linker I:N-II:5-III:5 via X1) [BCY13275]	10.10

Item I: Ac-A[hArg]DC[Hyp]LVNPLCKHP[dD]W[hArg]C-NH2 / II: Ac-C[tBuAla]PE[dK]PYCFADPY[Nle]CA-NH2 / III: Ac-C[tBuAla]PE[dK]PYCFADPY[Nle]CA-NH2 (linker I:4-I:11-I:18, II:1-II:8-II:15, III:1-III:8-III:15 via TATA; linker I:12-II:5-III:5 via X1) [BCY12976] has what recorded pEC50?
9.74

Look up pEC50 for this substance: I: A[hArg]DC[Hyp]LVNPLCLHP[dE]W[hArg]C-NH2 / II: Ac-C[tBuAla]PE[dK]PYCFADPY[Nle]CA-NH2 / III: Ac-C[tBuAla]PE[dK]PYCFADPY[Nle]CA-NH2 (linker I:4-I:11-I:18, II:1-II:8-II:15, III:1-III:8-III:15 via TATA; linker I:N-II:5-III:5 via X1) [BCY12977]
10.10

Recorded pEC50 for I: A[hArg]DC[Hyp]LVNPLCLHP[dD]W[hArg]C-NH2 / II: Ac-C[tBuAla]PE[dK]PYCFADPY[Nle]CA-NH2 / III: Ac-C[tBuAla]PE[dK]PYCFADPY[Nle]CA-NH2 (linker I:4-I:11-I:18, II:1-II:8-II:15, III:1-III:8-III:15 via TATA; linker I:N-II:5-III:5 via X4) [BCY12979] , please?
10.10

Item I: Ac-A[hArg]DC[Hyp]LVNPLCLHP[dD]W[hArg]CK-NH2 / II: Ac-C[tBuAla]PE[dK]PYCFADPY[Nle]CA-NH2 / III: Ac-C[tBuAla]PE[dK]PYCFADPY[Nle]CA-NH2 (linker I:4-I:11-I:18, II:1-II:8-II:15, III:1-III:8-III:15 via TATA; linker I:19-II:5-III:5 via X1) [BCY12973] has what recorded pEC50?
9.80

Given I: C[Hyp][Cba]VNPLCL[Dip]P[dD]WTC[dA]-NH2 / II: [Mpa][tBuAla]PE[dK]PYCFADPY[Nle]C-NH2 / III: [tBuAla]PE[dK]PYCFADPY[Nle]C-NH2 (linker I:1-I:8-I:15, II:1-II:8-II:15 via TATA; linker I:N-II:5-III:4 via X1; linker III:N-III:7-III:14 via X2) [BCY13341] , state its recorded pEC50.
9.72

Name the recorded pEC50 for I: C[Hyp][Cba]VNPLCL[Dip]P[dD]WTC[dA]-NH2 / II: Ac-C[tBuAla]PE[dK]PYCFADPY[Nle]CA-NH2 / III: Ac-C[tBuAla]PE[dK]PYCFADPY[Nle]CA-NH2 (linker I:1-I:8-I:15, II:1-II:8-II:15, III:1-III:8-III:15 via TATA; linker I:N-II:5-III:5 via X1) [BCY13053] .
10.00

Sample I: Ac-A[hArg]DC[Hyp]LVNPLCLKP[dD]W[hArg]C-NH2 / II: Ac-C[tBuAla]PE[dK]PYCFADPY[Nle]CA-NH2 / III: Ac-C[tBuAla]PE[dK]PYCFADPY[Nle]CA-NH2 (linker I:4-I:11-I:18, II:1-II:8-II:15, III:1-III:8-III:15 via TATA; linker I:13-II:5-III:5 via X1) [BCY12974] — what was its pEC50?
9.74

What value of measured pEC50 is listed for I: Ac-C[tBuAla]PE[dK]PYCFADPY[Nle]CA-NH2 / II: Ac-C[tBuAla]PE[dK]PYCFADPY[Nle]CA-NH2 / III: C[Hyp]LVNPLCL[ξDip]P[dD]WTC-NH2 (linker I:1-I:8-I:15, II:1-II:8-II:15, III:1-III:8-III:15 via TATA; linker I:5-II:5-III:N via X3) [BCY13048] ?
10.05

Returns the measured pEC50 for the input substance. Input: I: A[hArg]DC[Hyp]LVNPLCL[Dip]P[dD]W[hArg]C-NH2 / II: Ac-C[tBuAla]PE[dK]PYCFADPY[Nle]CA-NH2 / III: Ac-C[tBuAla]PE[dK]PYCFADPY[Nle]CA-NH2 (linker I:4-I:11-I:18, II:1-II:8-II:15, III:1-III:8-III:15 via TATA; linker I:N-II:5-III:5 via X1) [BCY13054]
10.15

* * *

TEST_SUMMARY: Pharmacokinetics in cynomolgus monkey
Format: in vivo
REPORTED_CONDITIONS: plasma, IV infusion (15 min), dose 9.2 mg/kg, 8.9 mg/kg, read-out: terminal half life (converted)
Starred links: 1 amine or outer side, 2 acyl side, 3 side chain; linkers in the order of their positions; H or OH if unused. Positions of bridges follow the written chain, without caps; N, C: chain ends. Non-standard residues stand in square brackets, D forms with d. Chains are numbered I, II in the order given. X1 = O=C(CCOCCOCCOCCN(CCOCCOCCOCCn1cc(CCC(=O)[*:2])nn1)CCOCCOCCOCCn1cc(CCC(=O)[*:3])nn1)[*:1]; TATA = O=C(CC[*:1])N1CN(C(=O)CC[*:2])CN(C(=O)CC[*:3])C1; d1Nal = N[C@H](Cc1cccc2ccccc12)C(=O)O; Hyp = O=C(O)[C@@H]1C[C@@H](O)CN1; hArg = N=C(N)NCCCC[C@H](N)C(=O)O; tBuAla = CC(C)(C)C[C@H](N)C(=O)O; Nle = CCCC[C@H](N)C(=O)O
RECORDED_METRIC: half-life (h)
Response body: numeric value in h, unit text excluded.

Give its half-life value. Item: I: A[hArg]DC[Hyp]LVNPLCLEP[d1Nal]WTC-NH2 / II: Ac-C[tBuAla]PE[dK]PYCFADPY[Nle]CA-NH2 / III: Ac-C[tBuAla]PE[dK]PYCFADPY[Nle]CA-NH2 (linker I:4-I:11-I:18, II:1-II:8-II:15, III:1-III:8-III:15 via TATA; linker I:N-II:5-III:5 via X1) [BCY13272]
8.9
